Data provenance: patent US20170044100A1

tested on: M. tuberculosis IAR2 (mmpL3 S288T mutant); assay type: cell-based, Mycobacterium tuberculosis
measured_quantity: MIC for IAR2

compound	reported
CC[C@@H](CO)NCCN[C@@H](CC)CO	1 µg/mL
Cc1cc(C)c2cc(C(=O)NC3CCCCCCC3)[nH]c2c1	0.25 µg/mL
CO[C@H]1/C=C/O[C@@]2(C)Oc3c(C)c(O)c4c(O)c(c(/C=N/N5CCN(C)CC5)c(O)c4c3C2=O)NC(=O)/C(C)=C\C=C\[C@H](C)[C@H](O)[C@@H](C)[C@@H](O)[C@@H](C)[C@H](OC(C)=O)[C@@H]1C	0.03125 µg/mL
NCC[C@H](O)C(=O)N[C@@H]1C[C@H](N)[C@@H](O[C@H]2O[C@H](CN)[C@@H](O)[C@H](O)[C@H]2O)[C@H](O)[C@H]1O[C@H]1O[C@H](CO)[C@@H](O)[C@H](N)[C@H]1O	1 µg/mL
NNC(=O)c1ccncc1 [Isoniazid, reference compound]	0.04 µg/mL
Cc1cc(C)c2cc(C(=O)NC3CCCCCC3)[nH]c2c1	1 µg/mL
CC(C)=CCC/C(C)=C/CNCCNC1C2CC3CC(C2)CC1C3 (centres unmarked)	4 µg/mL
